target: Integrin alpha-V/beta-6 (Homo sapiens, UniProt P06756+P18564); assay: Inhibition of fibronectin binding to alphaVbeta6 isolated form human HT-29 cells incubated for 1 hr by […] competitive solid-phase binding assay; type: tissue-based
Sequence (P06756 31-889 limits assumed): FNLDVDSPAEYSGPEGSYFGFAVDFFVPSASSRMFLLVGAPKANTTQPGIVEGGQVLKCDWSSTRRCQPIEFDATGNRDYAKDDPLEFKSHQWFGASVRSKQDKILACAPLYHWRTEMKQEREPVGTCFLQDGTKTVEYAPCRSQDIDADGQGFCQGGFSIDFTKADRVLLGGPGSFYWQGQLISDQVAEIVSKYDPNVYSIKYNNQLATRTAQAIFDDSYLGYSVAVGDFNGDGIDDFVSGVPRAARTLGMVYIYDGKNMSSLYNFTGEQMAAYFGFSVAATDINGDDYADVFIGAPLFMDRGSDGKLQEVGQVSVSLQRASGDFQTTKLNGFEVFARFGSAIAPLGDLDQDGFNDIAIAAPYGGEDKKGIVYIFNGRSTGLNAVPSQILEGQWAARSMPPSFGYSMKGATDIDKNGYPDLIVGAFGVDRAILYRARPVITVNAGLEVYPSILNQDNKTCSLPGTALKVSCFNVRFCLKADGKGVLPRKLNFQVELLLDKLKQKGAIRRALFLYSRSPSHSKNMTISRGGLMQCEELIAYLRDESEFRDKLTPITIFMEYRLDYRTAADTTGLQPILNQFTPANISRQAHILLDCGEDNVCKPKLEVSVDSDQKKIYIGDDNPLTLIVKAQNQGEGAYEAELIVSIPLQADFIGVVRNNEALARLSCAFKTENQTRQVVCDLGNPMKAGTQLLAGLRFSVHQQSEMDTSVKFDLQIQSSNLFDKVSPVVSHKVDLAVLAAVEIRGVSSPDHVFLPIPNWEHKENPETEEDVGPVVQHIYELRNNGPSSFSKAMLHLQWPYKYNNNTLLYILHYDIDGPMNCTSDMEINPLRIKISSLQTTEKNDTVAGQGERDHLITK
Sequence (P06756 891-1048 limits assumed): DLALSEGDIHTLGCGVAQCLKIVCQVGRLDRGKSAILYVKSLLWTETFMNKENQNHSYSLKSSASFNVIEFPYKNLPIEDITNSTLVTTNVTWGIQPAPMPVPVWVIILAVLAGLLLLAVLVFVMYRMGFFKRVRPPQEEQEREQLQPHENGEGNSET
Sequence (P18564 22-788 limits assumed): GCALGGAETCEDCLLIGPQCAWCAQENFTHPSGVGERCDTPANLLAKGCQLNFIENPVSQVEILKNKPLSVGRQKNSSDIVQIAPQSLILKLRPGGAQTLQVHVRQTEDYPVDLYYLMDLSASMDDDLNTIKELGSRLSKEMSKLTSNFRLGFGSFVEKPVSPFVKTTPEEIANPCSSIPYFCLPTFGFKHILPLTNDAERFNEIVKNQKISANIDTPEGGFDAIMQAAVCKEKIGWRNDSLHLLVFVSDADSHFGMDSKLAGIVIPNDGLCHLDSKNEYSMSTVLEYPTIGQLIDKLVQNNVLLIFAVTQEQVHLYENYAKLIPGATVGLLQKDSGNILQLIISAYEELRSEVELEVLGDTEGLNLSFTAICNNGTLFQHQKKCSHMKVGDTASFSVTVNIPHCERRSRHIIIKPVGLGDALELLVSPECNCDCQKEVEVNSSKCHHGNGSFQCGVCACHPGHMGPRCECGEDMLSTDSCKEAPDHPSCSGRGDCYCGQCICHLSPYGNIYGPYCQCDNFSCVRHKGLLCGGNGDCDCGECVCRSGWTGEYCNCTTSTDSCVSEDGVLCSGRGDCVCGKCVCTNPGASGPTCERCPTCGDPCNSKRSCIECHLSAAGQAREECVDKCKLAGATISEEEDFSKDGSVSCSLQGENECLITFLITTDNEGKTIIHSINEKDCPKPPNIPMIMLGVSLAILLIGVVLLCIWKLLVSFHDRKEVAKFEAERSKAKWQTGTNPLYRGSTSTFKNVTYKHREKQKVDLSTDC
Provide the reported IC50 of each item.

# example entries with known answers
compound	IC50
Cc1ccccc1NC(=O)N1C(=O)C[C@H]1C(=O)O	> 1000 nM
NCc1ccc(NC(=O)N2C(=O)CC2CC(=O)O)cc1.O=C(O)C(F)(F)F (stereo not drawn)	80.5 nM

Recorded IC50 of Nc1ccc(CNC(=O)N2C(=O)C[C@H]2C(=O)O)cc1.O=C(O)C(F)(F)F , please.
> 1000 nM
